Test: BET inhibitor-based combinations targeting novel dependencies in MECOM-rearranged (r) AML: HNT-34 cell line (AID 2202234); further: nearly all actives have a fitted effect of over 35% in size
Details: HNT-34 AML viability, CellTiter-Glo luminescence, 48 h; series mostly up to 46 µM
Inconclusive results are not listed. Calls of active or inactive are those of the source. The call rests on the fitted dose curve; in most records, active means well fitted inhibition curve with a large enough effect; inconclusive means small, poorly fitted or top-dose-only effect; inactive means no such curve, though single readings can be large or run the other way.
Labels: active, inactive

                                    molecule  label_class
 0  O=C(Nc1ccc2c(c1)CCN(Cc1ncn[nH]1)C2)c1ccccc1-c1ccc(C(F)(F)F)cc1     inactive
 1  CC1(C)[C@@H](O)CC[C@]2(C)[C@H]3C(=O)C=C4[C@@H]5C[C@@](C)(C(=O)O)CC[C@]5(C)CC[C@@]4(C)[C@]3(C)CC[C@@H]12     inactive
 2  Cc1nnc(C(C)C)n1C1CC2CCC(C1)N2CC[C@H](NC(=O)C1CCC(F)(F)CC1)c1ccccc1 (some centres undefined)     inactive
 3  O=C(Nc1ccc(-c2ccnc(Nc3ccc(N4CCOCC4)cc3)n2)cc1)C1CCCN1 (centres undefined)       active
 4   CC(C)(OCc1nn(Cc2ccccc2)c2ccccc12)C(=O)O     inactive
 5  CC(C)CC(=O)Nc1n[nH]c2c1CN(C(=O)C1CCN(C)CC1)C2(C)C       active
 6  CC(C)C[C@H](NC(=O)CNC(=O)c1cc(Cl)ccc1Cl)B1OC(=O)CC(CC(=O)O)(C(=O)O)O1 (some centres undefined)       active
 7  Clc1ccc(C(c2ccc(Cl)cc2)n2cc[n+](CC(OCc3ccc(Cl)cc3Cl)c3ccc(Cl)cc3Cl)c2)cc1 (centres undefined)       active
 8  Nc1nc(-c2nn(Cc3ccccc3F)c3ncccc23)nc(N)c1N1CCOCC1     inactive
 9                  O=NN(CCCl)C(=O)NC1CCCCC1     inactive
10  Cn1c(=O)n(-c2ccc(C(C)(C)C#N)cc2)c2c3cc(-c4cnc5ccccc5c4)ccc3ncc21       active
11  CN[C@H]1CCc2cc(OC)c(OC)c(OC)c2-c2ccc(OC)c(=O)cc21       active
12  Cc1cc(N2CCOCC2)cc2[nH]c(-c3c(NC[C@@H](O)c4cccc(Cl)c4)cc[nH]c3=O)nc12       active
13          CC(C)(CO)[C@@H](O)C(=O)NCCC(=O)O     inactive
14  Cc1n[nH]c(C)c1Cc1sc2c(c1C(=O)N1C[C@H](O)CO1)c(=O)n(C)c(=O)n2CC(C)C     inactive
15  O=C(C1CCCCC1)N1CC(=O)N2CCc3ccccc3C2C1 (centres undefined)     inactive
16  CCOc1cc(N)c(Cl)cc1C(=O)NCC1CN(Cc2ccc(F)cc2)CCO1 (centres undefined)     inactive
17  Cc1cnc(-c2cc(N3CCN(C(=O)CCS(C)(=O)=O)CC3)ncc2Cl)c(C)c1     inactive
18  C=CC(=O)Nc1cc(Nc2nccc(-c3cn(C)c4ccccc34)n2)c(OC)cc1N(C)CCN(C)C       active
19       Cc1cccc(N(C)C(=S)Oc2ccc3ccccc3c2)c1     inactive
20  O=c1[nH]c(=O)n(C2CCCO2)cc1F (centres undefined)     inactive
21  CC(C)(O)c1cc2nc(-c3cnc(N)nc3)nc(N3CCOCC3)c2s1       active
22  O=C(NOCC(O)CO)c1cc(Br)c(F)c(F)c1Nc1ccc(I)cc1F (centres undefined)       active
23  O=C(NCC1CCCCN1)c1cc(OCC(F)(F)F)ccc1OCC(F)(F)F (centres undefined)     inactive
24  CC(=O)O[C@]1(C(C)=O)CC[C@H]2[C@@H]3C[C@H](C)C4=CC(=O)CC[C@]4(C)[C@H]3CC[C@@]21C       active
25        Cc1cc(C(C)(C)C)c(O)c(C)c1CC1=NCCN1     inactive
26  O=C(NCC1CN(c2ccc(N3CCOCC3=O)cc2)C(=O)O1)c1ccc(Cl)s1 (centres undefined)       active
27  CC[C@H](CC#N)OC(=O)N[C@@H](C)c1cccc(NC(=O)Nc2ccc(-c3cnco3)c(OC)c2)c1       active
28  Clc1ccc(C2(c3ccc(-c4cn[nH]c4)cc3)CCNCC2)cc1       active
29  Cc1ccn(-c2ccc(-c3ncco3)cc2)c(=O)c1-c1ccc2nc(N)ncc2c1       active
30  C[C@]12CC[C@@H]3c4ccc(O)cc4CC[C@H]3[C@H]1[C@@H](O)[C@@H](O)[C@H]2O     inactive
31       Cc1cc2c(s1)Nc1ccccc1N=C2N1CCN(C)CC1     inactive
32  Cc1c(CCOc2ccc(C(=O)O)cc2)c2cc(Cl)ccc2n1C(c1ccccc1)c1ccccc1     inactive
33  COc1ccc(CC2=NN3C([C@@H](CCc4ccccc4)[C@@H](C)O)=NC(C)C3C(=O)N2)cc1OC (some centres undefined)       active
34  O=Nc1c(-c2c(O)[nH]c3cc(Br)ccc23)[nH]c2ccccc12       active
35  CC(=O)Nc1nc(C)c(-c2ccc(Cl)c(S(=O)(=O)NCCO)c2)s1       active
36  CN(NC(=O)CC(=O)NN(C)C(=S)c1ccccc1)C(=S)c1ccccc1       active
37                         NC(=O)c1cccc(N)c1     inactive
38  CCOc1cc(N2CCC(O)CC2)ccc1Nc1ncc2c(n1)N(C)c1ccccc1C(=O)N2C       active
